Entry source: the Immune Epitope Database (IEDB)

- target desc: HLA-A*02:03
- experiment summary: IEDB peptide-MHC binding, purified MHC/direct/fluorescence; filed as Kd, often an IC50 or EC50 that approximates it; bounds were set here for any values at or beyond the usual limits of such assays
- details: source organism: Mammarenavirus machupoense
pKd: −log10 of the molar value.

residue string: LITEQFLCY
pKd: ≤ 4.70

----------
- target desc: HLA-A*26:01
- experiment summary: IEDB peptide-MHC binding, purified MHC/competitive/fluorescence; filed as Kd, often an IC50 or EC50 that approximates it; bounds were set here for any values at or beyond the usual limits of such assays
- details: source organism: Encephalitozoon cuniculi GB-M1
measurement kind: Kd

residue string: NLFEIEWEE
target desc: HLA-A*26:01
measurement kind: Kd
experimental value: ≥ 20 µM

----------
- target desc: HLA-A*02:12
- experiment summary: IEDB peptide-MHC binding, purified MHC/direct/fluorescence; filed as Kd, often an IC50 or EC50 that approximates it; bounds were set here for any values at or beyond the usual limits of such assays
- details: source organism: Oran virus

residue string: KPKALSEAF
target desc: HLA-A*02:12
Kd: ≥ 20 µM

----------
- target desc: HLA-A*02:03
- experiment summary: IEDB peptide-MHC binding, purified MHC/competitive/radioactivity; filed as Kd, often an IC50 or EC50 that approximates it; bounds were set here for any values at or beyond the usual limits of such assays
- details: source organism: Vaccinia virus WR
pKd: −log10 of the molar value.
measurement kind: pKd

residue string: VLPHLCLDYK
rel: ≤
experimental value: 4.15

residue string: MIIGEPIIVA
rel: =
experimental value: 6.95

residue string: VMDKNHAIFT
rel: =
experimental value: 4.94

residue string: GLSASDVDM
rel: =
experimental value: 5.45

residue string: PTNDIPSLFI
rel: ≤
experimental value: 4.21

residue string: KLVETGFVI
rel: =
experimental value: 5.97

residue string: ALLSCIRNA
rel: =
experimental value: 8.21

residue string: ILATLNTLI
rel: =
experimental value: 9.64

residue string: GAAITLVVI
rel: =
experimental value: 5.48

residue string: AIDRQVSVKL
rel: =
experimental value: 4.88

residue string: DLLNVTYNI
rel: =
experimental value: 6.71

residue string: ITLILSNKLL
rel: =
experimental value: 5.33

residue string: NMLDDFSAGA
rel: =
experimental value: 6.79

residue string: IISLFYTFAI
rel: =
experimental value: 7.36

residue string: GTKGKLYIA
rel: =
experimental value: 7.25

residue string: YAVLSEYET
rel: ≤
experimental value: 4.45

residue string: GTKGKLYIAL
rel: =
experimental value: 5.11

residue string: KVEKYLPEV
rel: =
experimental value: 6.77

residue string: VVIVENDNV
rel: ≤
experimental value: 4.42

residue string: PLSINVSGV
rel: =
experimental value: 7.34

residue string: KVIKLVKSL
rel: =
experimental value: 7.37

residue string: WLKDSAIMVA
rel: =
experimental value: 5.88

residue string: MQLKIDKLT
rel: ≤
experimental value: 4.22

residue string: GARVIWMDA
rel: =
experimental value: 5.04

residue string: TIAGGVCYYL
rel: =
experimental value: 7.46

residue string: VLQQNNSFII
rel: =
experimental value: 5.99

residue string: CTEETKRNIA
rel: ≤
experimental value: 4.30

residue string: DVSVSVGTGI
rel: =
experimental value: 5.23

residue string: KIVQLPKRGV
rel: =
experimental value: 7.29

residue string: CQCTVQEFI
rel: =
experimental value: 5.32

residue string: LVAEHRFENM
rel: =
experimental value: 6.34

residue string: IAIFNNRNL
rel: =
experimental value: 4.98

residue string: TIAVSVYGAI
rel: =
experimental value: 6.24

residue string: TILATLNTL
rel: =
experimental value: 7.47

residue string: CVDHPFIYV
rel: =
experimental value: 5.85

residue string: ALYSPPLISI
rel: =
experimental value: 6.82
